- measurement_target: CDK4-NanoLuc fusion with CCND1 in 293T or 293 cells (Homo sapiens, UniProt P11802)
- Construct: host or cells: 293T (ATCC CRL-3216) or 293 (ATCC CRL-1573)
- Sequence (P11802 whole entry, the tested form may be a part): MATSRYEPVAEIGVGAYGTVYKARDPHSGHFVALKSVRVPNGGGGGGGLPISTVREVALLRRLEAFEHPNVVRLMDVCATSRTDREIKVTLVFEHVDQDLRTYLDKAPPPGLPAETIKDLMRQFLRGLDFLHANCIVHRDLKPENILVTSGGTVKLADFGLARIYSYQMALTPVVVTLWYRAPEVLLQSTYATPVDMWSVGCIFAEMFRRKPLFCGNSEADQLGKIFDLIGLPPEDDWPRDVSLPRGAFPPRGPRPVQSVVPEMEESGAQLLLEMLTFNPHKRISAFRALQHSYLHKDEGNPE
- Sequence (P24385 whole entry partner, the tested form may be a part): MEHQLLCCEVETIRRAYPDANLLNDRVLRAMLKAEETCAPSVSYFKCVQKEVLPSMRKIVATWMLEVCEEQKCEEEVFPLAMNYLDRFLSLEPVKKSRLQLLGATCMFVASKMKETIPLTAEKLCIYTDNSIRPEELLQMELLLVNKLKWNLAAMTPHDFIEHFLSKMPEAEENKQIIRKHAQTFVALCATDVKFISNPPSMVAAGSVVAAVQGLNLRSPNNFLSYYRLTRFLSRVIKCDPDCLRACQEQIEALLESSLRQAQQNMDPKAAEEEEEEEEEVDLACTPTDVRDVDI
- method: NanoBRET Target Engagement (TE) Intracellular Kinase Assay, CDK4/CCND1
- Format: cell-based
- condition_description: NanoBRET TE intracellular kinase assay, 2-hour incubation, read-out: NanoBRET-CDK4/D1 IC50
- Method: Inhibitory effects of compounds were measured in NanoBRET TE Intracellular Kinase Assay. […] NanoBRET signals (donor emission wavelength at 450 nm, acceptor emission wavelength at 610 nm) were measured using Envision plate reader (PerkinElmer). NanoBRET ratio was calculated by: BRET Ratio=raw signal for acceptor/raw signal for donor. […]
Listed below: IC50 values for each entry.
measured_metric: IC50 (µM)

[[record]]
molecule_smiles = "CCN(C(=O)O[C@@H]1CC[C@H](c2cc(NC(=O)COc3cc(OC)cc(O)c3C=O)n[nH]2)C1)C(C)C"
readout_unit = "µM"
result_comparator = "="
reported_result = 0.773

[[record]]
molecule_smiles = "CCn1nc(-c2cccc(O)c2C=O)cc1C(=O)Nc1cc([C@H]2CC[C@@H](OC(=O)NC(C)C)C2)[nH]n1"
readout_unit = "µM"
result_comparator = "="
reported_result = 3.63

[[record]]
molecule_smiles = "COc1cc(O)c(C=O)c(OCC(=O)Nc2cc([C@H]3CC[C@@H](OC(=O)N4C[C@@H]5C[C@H]4CO5)C3)[nH]n2)c1"
readout_unit = "µM"
result_comparator = ">"
reported_result = 9.51

[[record]]
molecule_smiles = "COc1cc(O)c(C=O)c(O[C@H](C)C(=O)Nc2cc([C@H]3CC[C@@H](OC(=O)NC4(C)CC4)C3)[nH]n2)c1"
readout_unit = "µM"
result_comparator = "="
reported_result = 0.864

[[record]]
molecule_smiles = "C#C[C@@H]1CCCN1C(=O)O[C@@H]1CC[C@H](c2cc(NC(=O)COc3cc(OC)cc(O)c3C=O)n[nH]2)C1"
readout_unit = "µM"
result_comparator = "="
reported_result = 2.83

[[record]]
molecule_smiles = "COc1cc(O)c(C=O)c(OCC(=O)Nc2cc([C@H]3CC[C@@H](OC(=O)N4CCOC[C@H]4C)C3)[nH]n2)c1"
readout_unit = "µM"
result_comparator = ">"
reported_result = 10

[[record]]
molecule_smiles = "COc1cc(O)c(C=O)c(OCC(=O)Nc2cc([C@H]3CC[C@@H](OC(=O)N4CCCC4)C3)[nH]n2)c1"
readout_unit = "µM"
result_comparator = "="
reported_result = 4.27

[[record]]
molecule_smiles = "CC(C)NC(=O)O[C@@H]1CC[C@H](c2cc(Nc3cc(OCc4cccc(O)c4C=O)ccn3)n[nH]2)C1"
readout_unit = "µM"
result_comparator = "="
reported_result = 1.21

[[record]]
molecule_smiles = "CC(C)NC(=O)O[C@@H]1CC[C@H](c2cc(NC(=O)c3ccnc(Oc4cccc(O)c4C=O)c3)n[nH]2)C1"
readout_unit = "µM"
result_comparator = "="
reported_result = 1.95

[[record]]
molecule_smiles = "CCCNC(=O)O[C@H]1C[C@@H](c2cc(NC(=O)COc3cc(OC)cc(OC)c3C=O)n[nH]2)C1"
readout_unit = "µM"
result_comparator = "="
reported_result = 5.36

[[record]]
molecule_smiles = "COCC[C@H](C)NC(=O)O[C@@H]1CC[C@H](c2cc(NC(=O)COc3cc(OC)cc(O)c3C=O)n[nH]2)C1"
readout_unit = "µM"
result_comparator = ">"
reported_result = 10

[[record]]
molecule_smiles = "CC(C)NC(=O)O[C@@H]1CC[C@H](c2cc(NC(=O)c3cc(-c4cccc(NS(C)(=O)=O)c4C=O)nn3C)n[nH]2)C1"
readout_unit = "µM"
result_comparator = "="
reported_result = 3.06

[[record]]
molecule_smiles = "COc1cc(O)c(C=O)c(OCC(=O)Nc2cc([C@H]3CC[C@@H](OC(=O)N4CC5CC(C5)C4)C3)[nH]n2)c1"
readout_unit = "µM"
result_comparator = "="
reported_result = 3.06


src = patent US20250289789A1
